In this section, each of the molecules is paired with its reported IC50.
- tested.system: PI3K α (Homo sapiens (Human), UniProt P42336)
- Sequence (P42336 whole entry): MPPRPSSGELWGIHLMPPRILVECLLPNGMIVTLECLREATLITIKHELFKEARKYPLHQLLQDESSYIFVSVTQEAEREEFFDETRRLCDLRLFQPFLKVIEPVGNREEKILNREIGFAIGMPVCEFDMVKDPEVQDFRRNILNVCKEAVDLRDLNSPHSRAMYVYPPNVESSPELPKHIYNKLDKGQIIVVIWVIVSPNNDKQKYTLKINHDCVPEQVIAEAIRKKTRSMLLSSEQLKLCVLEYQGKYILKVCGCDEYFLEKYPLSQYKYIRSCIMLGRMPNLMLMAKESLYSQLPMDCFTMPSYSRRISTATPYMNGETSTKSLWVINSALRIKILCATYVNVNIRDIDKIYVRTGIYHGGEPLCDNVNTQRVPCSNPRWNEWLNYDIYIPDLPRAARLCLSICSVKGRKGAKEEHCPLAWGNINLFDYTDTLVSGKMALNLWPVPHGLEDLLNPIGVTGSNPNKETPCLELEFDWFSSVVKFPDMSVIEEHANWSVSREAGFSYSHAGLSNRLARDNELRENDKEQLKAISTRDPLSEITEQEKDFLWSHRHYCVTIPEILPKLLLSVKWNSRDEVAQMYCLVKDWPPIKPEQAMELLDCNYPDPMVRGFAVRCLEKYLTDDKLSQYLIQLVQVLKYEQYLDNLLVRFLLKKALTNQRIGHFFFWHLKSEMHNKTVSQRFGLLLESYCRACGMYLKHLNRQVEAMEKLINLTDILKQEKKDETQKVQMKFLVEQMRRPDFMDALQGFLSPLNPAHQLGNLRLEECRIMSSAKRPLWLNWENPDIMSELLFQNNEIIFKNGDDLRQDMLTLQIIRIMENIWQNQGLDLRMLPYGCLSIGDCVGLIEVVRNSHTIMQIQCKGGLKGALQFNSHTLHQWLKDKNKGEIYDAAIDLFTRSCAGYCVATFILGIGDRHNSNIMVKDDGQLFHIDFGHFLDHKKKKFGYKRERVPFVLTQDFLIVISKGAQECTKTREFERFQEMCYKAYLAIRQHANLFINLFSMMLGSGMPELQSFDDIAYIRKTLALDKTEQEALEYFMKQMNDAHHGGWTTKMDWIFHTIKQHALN
- Sequence (P27986 whole entry partner): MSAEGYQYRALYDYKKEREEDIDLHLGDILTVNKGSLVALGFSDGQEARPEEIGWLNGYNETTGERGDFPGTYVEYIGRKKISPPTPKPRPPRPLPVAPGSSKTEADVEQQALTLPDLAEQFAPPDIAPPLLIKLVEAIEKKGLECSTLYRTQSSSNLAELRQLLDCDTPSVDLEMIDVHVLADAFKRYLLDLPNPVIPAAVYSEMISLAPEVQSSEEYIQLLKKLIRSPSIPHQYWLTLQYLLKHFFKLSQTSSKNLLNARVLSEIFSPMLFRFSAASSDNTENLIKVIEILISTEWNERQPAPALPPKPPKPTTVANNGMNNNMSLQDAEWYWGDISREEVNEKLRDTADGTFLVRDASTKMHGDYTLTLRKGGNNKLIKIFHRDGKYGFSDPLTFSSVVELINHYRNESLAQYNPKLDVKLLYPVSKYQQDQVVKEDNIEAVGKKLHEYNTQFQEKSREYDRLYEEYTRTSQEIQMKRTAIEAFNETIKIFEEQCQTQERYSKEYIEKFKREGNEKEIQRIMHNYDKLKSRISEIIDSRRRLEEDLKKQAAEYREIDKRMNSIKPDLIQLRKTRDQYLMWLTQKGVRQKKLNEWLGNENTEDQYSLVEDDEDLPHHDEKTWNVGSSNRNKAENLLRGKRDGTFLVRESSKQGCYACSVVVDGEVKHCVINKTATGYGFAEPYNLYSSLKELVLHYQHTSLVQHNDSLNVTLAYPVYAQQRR
- method.summary: PI3K α kinase assay
- Assay type: biochemical
- condition.notes: Table 2
measured.parameter: IC50

| smi | tested.system | endpoint.result |
| --- | --- | --- |
| COCCn1nc(-c2cc3cc(O)ccc3[nH]2)c2c(N)ncnc21 | PI3K α (Homo sapiens (Human), UniProt P42336) | > 0.5 µM |
| Nc1ncnc2c1c(-c1cc3cc(O)ccc3[nH]1)nn2C1CC(=O)C1 | PI3K α (Homo sapiens (Human), UniProt P42336) | > 0.5 µM |
| Nc1ncnc2c1c(-c1cc3c(Cl)cccc3[nH]1)nn2C1CCOCC1 | PI3K α (Homo sapiens (Human), UniProt P42336) | > 0.5 µM |
| Nc1ncnc2c1c(-c1cc3cccc(Cl)c3[nH]1)nn2C1CCOCC1 | PI3K α (Homo sapiens (Human), UniProt P42336) | > 0.5 µM |
| Nc1ncnc2c1c(-c1cc3ccc(O)cc3[nH]1)nn2C1CCOCC1 | PI3K α (Homo sapiens (Human), UniProt P42336) | > 0.5 µM |
| CC(=O)N1CCC(n2nc(-c3cc4cc(O)cc(Cl)c4[nH]3)c3c(N)ncnc32)CC1 | PI3K α (Homo sapiens (Human), UniProt P42336) | < 0.5 µM |
| CNC(=O)Cn1nc(-c2cc3cc(O)ccc3[nH]2)c2c(N)ncnc21 | PI3K α (Homo sapiens (Human), UniProt P42336) | > 0.5 µM |
| CC(C)N1CCC(n2nc(-c3cc4cc(O)cc(Cl)c4[nH]3)c3c(N)ncnc32)CC1 | PI3K α (Homo sapiens (Human), UniProt P42336) | > 0.5 µM |
| Nc1ncnc2c1c(-c1cc3cc(O)cc(Cl)c3[nH]1)nn2C1CCOCC1 | PI3K α (Homo sapiens (Human), UniProt P42336) | < 0.5 µM |
